Tested on: BMDCs
Assay: LDH release (lytic cell death, pyroptosis) from LPS-primed BMDCs
Type: cell-based, mouse
Conditions: LDH release; 75 μM; positive control EN22 10 μM
quantity_kind: Average (% positive control)
Answer in % positive control, number only, no unit symbol.

Check out these entries, answers already filled in.
1) O=[N+]([O-])c1ccc(NC(=S)Nc2cccc(Cl)c2)c(Cl)c1 = 33.532
2) O=C(Nc1cc(Cl)cc(Cl)c1)Nc1ccc([N+](=O)[O-])cc1Cl = 78.340
3) S=C(Nc1ccccc1)Nc1ccc2ncccc2c1 = 89.204

# context switch: different compound, same Average (% positive control)
Fill in the recorded Average (% positive control) for this compound, with BMDCs as test system: Cc1c(F)cccc1NC(=O)Nc1cccc(Cl)c1
44.370

---

Biological target: NLRP3 inflammasome (Mus musculus)
Construct: endogenous in cells; host or cells: primary mouse bone marrow-derived dendritic cells (BMDCs), LPS-primed
Assay: IL-1β release from LPS-primed BMDCs (ELISA) as readout of NLRP3 inflammasome activation
Assay type: cell-based
Conditions: compound 50 μM; LPS-primed BMDCs
param class (str): category from Average IL-1β; see ranges lower segment: < 0.09 ng/mL; middle segment: ≥ 0.09 ng/mL and < 1 ng/mL; upper segment: ≥ 1 ng/mL

Example results:
1. CC1Oc2ccc(NC(=O)Nc3ccccc3)cc2NC1=O (stereo not shown) = upper segment
2. CC(C)C(=O)Nc1cccc(NC(=O)Nc2ccccc2)c1 = lower segment
3. O=C(Nc1ccccc1)Nc1ccc(NC(=O)C2CCCC2)cc1 = upper segment
4. O=C(Nc1ccccc1)Nc1ccc(NC2CCOCC2)cc1 = lower segment
5. CS(=O)(=O)c1cc(NC(=O)Nc2ccccc2)ccc1Cl = middle segment

Pending molecule:
Which Average IL-1β band matches CC(C)Oc1ccccc1NC(=O)NCc1nc(C2CC2)no1 ?
lower segment

---

Recorded Average IL-1β for the following molecules
Biological target: NLRP3 inflammasome (Mus musculus)
Construct: endogenous in cells; host or cells: primary mouse bone marrow-derived dendritic cells (BMDCs), LPS-primed
Assay: IL-1β release from LPS-primed BMDCs (ELISA) as readout of NLRP3 inflammasome activation
Type: cell-based
Conditions: compound 50 μM; LPS-primed BMDCs
Answer in ng/mL, number only, no unit symbol.

Check out these entries, answers already filled in.
1. Cc1ccc(NC(=O)Nc2ccccc2)cc1NC(=O)NC(C)C = 1.708
2. CC(C)C(NC(=O)Nc1ccc2c(c1)COC2)c1nc(-c2cccnc2)no1 (stereo not drawn) = 0.075
3. Cc1ccc(-c2noc(CN3C(=O)CN(c4ccccc4)C3=O)n2)cc1 = 0.469
4. N#CCOc1ccc(NC(=O)Nc2ccccc2)cc1 = 0.186
5. COc1ccc(F)cc1NC(=O)NC(c1nc(-c2cccnc2)no1)C(C)C (stereo not drawn) = 1.177

# context switch: different molecule, same Average IL-1β
Field request: Average IL-1β | item: O=C(Nc1cccc(S(=O)(=O)C2CCCC2)c1)N1CCCCC1c1nc(-c2ccccc2)no1 (stereo not drawn)
0.067

---

Tested on: BMDCs
Assay: LDH release (lytic cell death, pyroptosis) from LPS-primed BMDCs
Assay type: cell-based, mouse
Settings: Mus musculus, BMDC, single replicates; compound 50 μM; LPS-primed BMDCs; read-out: LDH release (% of max.)
Kindly apply the following: condition met if cytotoxicity at 50 µM is less than 8%, condition not met in every other case.

Example results:
1) O=C(NCc1nc(-c2cccnc2)no1)Nc1cccc2cnccc12 [L01.062] = condition not met
2) Cc1ccc(-c2noc(CN3C(=O)CN(c4ccccc4)C3=O)n2)cc1 [L01.127] = condition not met
3) CC(=NO)c1ccc(NC(=O)Nc2ccccc2)cc1 [L01.095] = condition met

Please check: cytotoxicity at 50 µM for CC(C)=CC(=O)Nc1cccc(NC(=O)Nc2ccccc2)c1 [L01.003] , strictly under 8% or not?
condition met

Then what about the compound CC(C)c1ccc(NC(=O)Nc2ccccc2)cc1 [L01.047, 1-phenyl-3-[4-(propan-2-yl)phenyl]urea] ?
condition not met

Then what about the compound O=C(Nc1ccccc1)Nc1cccc(NC(=O)C2CC2)c1 [L01.084] ?
condition met

Then what about the compound COc1cccc(NC(=O)NCc2nc(Cc3ccccc3)no2)c1 [L01.067] ?
condition met

Then what about the compound O=C(NCc1nc(-c2cccnc2)no1)Nc1ccc([N+](=O)[O-])cc1Cl [L01.042] ?
condition met

Then what about the compound O=C(Nc1ccccc1)Nc1ccc(OC(F)(F)F)cc1 [L01.061] ?
condition not met

Then what about the compound Cc1ccc(NC(=O)Nc2ccccc2)cc1NC(=O)NC1CC1 [L01.028] ?
condition not met

Then what about the compound O=C(Nc1ccccc1)Nc1cccc(N2CCOC2=O)c1 [L01.045] ?
condition met

Then what about the compound COc1cccc(NC(=O)N(C)Cc2nc(-c3cccnc3)no2)c1 [L01.136] ?
condition met

Then what about the compound O=C(Nc1ccccc1)Nc1ccc(C(=O)N2CCC2)cc1 [L01.008] ?
condition not met

---

Target: NLRP3 inflammasome (Mus musculus, UniProt Q8R4B8)
Construct: endogenous in cells; host or cells: primary mouse bone marrow-derived dendritic cells (BMDCs), LPS-primed
Sequence (Q8R4B8 whole entry): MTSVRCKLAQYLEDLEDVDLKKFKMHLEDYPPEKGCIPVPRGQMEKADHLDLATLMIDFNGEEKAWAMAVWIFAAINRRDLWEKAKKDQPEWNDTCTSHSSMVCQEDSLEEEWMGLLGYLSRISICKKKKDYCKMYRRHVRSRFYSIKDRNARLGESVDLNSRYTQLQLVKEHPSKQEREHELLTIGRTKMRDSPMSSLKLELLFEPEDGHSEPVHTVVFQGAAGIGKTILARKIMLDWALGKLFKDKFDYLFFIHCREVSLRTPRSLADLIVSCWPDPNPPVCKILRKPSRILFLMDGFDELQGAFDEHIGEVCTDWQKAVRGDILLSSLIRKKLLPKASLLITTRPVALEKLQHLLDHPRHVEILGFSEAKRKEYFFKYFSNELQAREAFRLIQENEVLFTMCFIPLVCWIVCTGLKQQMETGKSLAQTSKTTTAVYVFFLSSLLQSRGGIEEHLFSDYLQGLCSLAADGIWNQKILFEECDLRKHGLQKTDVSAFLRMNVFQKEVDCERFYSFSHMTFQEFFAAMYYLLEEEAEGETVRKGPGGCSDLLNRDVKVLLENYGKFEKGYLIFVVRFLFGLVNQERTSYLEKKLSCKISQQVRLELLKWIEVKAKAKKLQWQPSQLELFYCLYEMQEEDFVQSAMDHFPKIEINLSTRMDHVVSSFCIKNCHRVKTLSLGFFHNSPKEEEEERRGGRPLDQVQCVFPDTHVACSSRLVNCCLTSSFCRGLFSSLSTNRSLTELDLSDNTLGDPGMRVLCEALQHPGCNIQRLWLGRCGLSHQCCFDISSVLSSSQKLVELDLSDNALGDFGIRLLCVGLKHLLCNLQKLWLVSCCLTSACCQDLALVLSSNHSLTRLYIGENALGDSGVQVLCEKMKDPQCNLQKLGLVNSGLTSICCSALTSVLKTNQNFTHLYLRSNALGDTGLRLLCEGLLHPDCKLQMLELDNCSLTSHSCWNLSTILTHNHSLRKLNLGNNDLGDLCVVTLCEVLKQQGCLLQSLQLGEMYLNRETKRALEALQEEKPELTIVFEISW
Test: IL-1β release from LPS-primed BMDCs (ELISA) as readout of NLRP3 inflammasome activation
Type: cell-based
Conditions: compound 50 μM; LPS-primed BMDCs
quantity_kind: Average IL-1β (ng/mL)
Answer in ng/mL, number only, no unit symbol.

Check out these entries, answers already filled in.
1. O=C(Nc1ccccc1)Nc1cccc([N+](=O)[O-])c1 [L01.108, 3-(3-nitrophenyl)-1-phenylurea] = 0.070
2. COCc1cc(F)ccc1NC(=O)NC(c1nc(-c2cccnc2)no1)C(C)C (stereo not shown) [L01.054] = 0.068

Fill in the recorded Average IL-1β for this compound, with NLRP3 inflammasome (Mus musculus, UniProt Q8R4B8) as test system: CCCCOC(=O)c1ccc(NC(=O)NC(CC(C)C)c2nc(-c3nnc[nH]3)no2)cc1 (stereo not shown) [L01.135]
0.070

Then what about the compound CC(C)C(NC(=O)Nc1cccc(C(F)(F)F)c1)c1nc(-c2cccnc2)no1 (stereo not shown) [L01.005] ?
0.070

---

Recorded Average (% positive control) for the following compounds
System: BMDCs
Experiment: LDH release (lytic cell death, pyroptosis) from LPS-primed BMDCs
Assay type: cell-based, mouse
Settings: LDH release; compound 50 μM; positive control nigericin 5 μM
Answer in % positive control, number only, no unit symbol.

Check out these entries, answers already filled in.
1. O=C(Nc1ccccc1)Nc1cccc(Br)c1 [L01.020, 3-(3-bromophenyl)-1-phenylurea] = 14.712
2. CC1Oc2ccc(NC(=O)Nc3ccccc3)cc2NC1=O (stereo not shown) [L01.110] = 46.015
3. O=C(Nc1ccccc1)Nc1ccc2ncccc2c1 [EN22, 1-phenyl-3-(quinolin-6-yl)urea] = 95.180

Field request: Average (% positive control) | item: Cc1ccc(NC(=O)Nc2ccccc2)cc1NC(=O)NC1CC1 [L01.028]
19.825

Then what about the compound O=C(Nc1ccccc1)Nc1ccc2c(c1)CCC2 [L01.066] ?
19.592

Then what about the compound CS(=O)(=O)c1cc(NC(=O)Nc2ccccc2)ccc1Cl [L01.035] ?
11.044

Then what about the compound O=C(NCc1nc(C2CC2)no1)Nc1cccc(F)c1 [L01.081] ?
8.656

Then what about the compound COc1ccccc1NC(=O)NCc1nc(-c2cccnc2)no1 [L01.043] ?
11.039

Then what about the compound O=C1CN(c2ccccc2)C(=O)N1Cc1nc(-c2ccco2)no1 [L01.033] ?
11.108

---

Tested on: BMDCs
Experiment: LDH release (lytic cell death, pyroptosis) from LPS-primed BMDCs
Format: cell-based, mouse
Conditions: LDH release; compound 50 μM; positive control nigericin 5 μM
quantity_kind: Average (% positive control)
Answer in % positive control, number only, no unit symbol.

Check out these entries, answers already filled in.
1. O=C(Nc1ccccc1)Nc1cccc(NC(=O)NC2CC2)c1 = 11.054
2. CCOc1ccc(NC(=O)NCc2nc(-c3cccc(OC)c3)no2)cc1OCC = 10.303
3. O=C1CN(c2ccccc2)C(=O)N1Cc1nc(-c2ccc(Cl)cc2)no1 = 16.093
4. O=C(Nc1ccccc1)Nc1cccc(N2CCOC2=O)c1 = 7.094
5. O=C(Nc1ccccc1)Nc1ccc(C(=O)N2CCC2)cc1 = 13.046

# context switch: different molecule, same Average (% positive control)
Field request: Average (% positive control) | item: O=C(Nc1ccccc1)Nc1cccc(NC(=O)C2CCCC2)c1
10.791

---

Recorded Average IL-1β for the following compounds
Biological target: NLRP3 inflammasome (Mus musculus)
Construct: endogenous in cells; host or cells: primary mouse bone marrow-derived dendritic cells (BMDCs), LPS-primed
Test: IL-1β release from LPS-primed BMDCs (ELISA) as readout of NLRP3 inflammasome activation
Assay type: cell-based
Conditions: compound 50 μM; LPS-primed BMDCs
Description: This was tested in cell culture in several different in vitro assays classically used to investigate inflammasome activation. […] Lytic cell death was determined via LDH release. […] For classification of the activity of a given molecule, release of IL-1β was quantified as % of IL-1% of a respective control activator used for the experiment (highlighted in tables with bold letters). […]
The reply must contain the numeric value and, after it, the unit.

1) CN1C(=O)c2ccc(NC(=O)Nc3ccccc3)cc2C1=O = 0.417 ng/mL

Field request: Average IL-1β | item: Cc1ccc(NC(=O)NCc2nc(Cc3ccccc3)no2)cc1
0.062 ng/mL

Then what about the compound Cc1ccc(NC(=O)Nc2ccccc2)cc1NC(=O)NC1CC1 ?
0.716 ng/mL

Then what about the compound Cc1cccc(NC(=O)Nc2ccccc2)c1 ?
0.098 ng/mL

Then what about the compound N#Cc1ccc(NC(=O)NC(CO)c2nc(-c3ccccc3)no2)cc1 (stereo not shown) ?
0.068 ng/mL

Then what about the compound COc1ccc(NC(=O)Nc2ccccc2)cc1Cl ?
0.495 ng/mL

Then what about the compound CCOc1ccc(NC(=O)NCc2nc(-c3cccc(OC)c3)no2)cc1OCC ?
0.120 ng/mL

Then what about the compound COc1cccc(NC(=O)NCc2nc(Cc3ccccc3)no2)c1 ?
0.068 ng/mL

Then what about the compound O=C1CN(c2ccccc2)C(=O)N1Cc1nc(-c2cccs2)no1 ?
0.324 ng/mL

Then what about the compound CC(C)C(NC(=O)Nc1ccc(Cl)cc1)c1nc(-c2ccccc2)no1 (stereo not shown) ?
0.126 ng/mL
